Attribution: the supplement of paper PMC8882468

Listed molecules paired with reported CTG-3D luminescence at 96 h
Test system: HCI-011.E2 (organoid from an ER-positive breast cancer xenograft)
assayProtocol: CTG-3D luminescence at 96 h relative to day-0 seeding control (ratio to day 0); higher = more growth / less cytotoxicity; PDxO 3D drug screen, 96 h, CTG-3D normalised to day-0 seeding control.
appliedConditions: 625 fM; days in culture: 74
Provide a numeric answer; units are not to be included.

| molecule | targetOrSystem | numericReadout |
| --- | --- | --- |
| C=CCn1c(=O)c2cnc(Nc3ccc(N4CCN(C)CC4)cc3)nc2n1-c1cccc(C(C)(C)O)n1 | HCI-011.E2 | 2.46 |

Record CN(Cc1cnc2nc(N)nc(N)c2n1)c1ccc(C(=O)N[C@@H](CCC(=O)O)C(=O)O)cc1 [methotrexate] ; system HCI-011.E2; CTG-3D luminescence at 96 h = 2.17

Record O=C(c1ccc(F)c(F)c1Nc1ccc(I)cc1F)N1CC(O)([C@@H]2CCCCN2)C1 ; system HCI-011.E2; CTG-3D luminescence at 96 h = 2.55
